Measured composite z-score of individual entries
test: small-molecule microarray binders of probe aDKK1, primary screen, biochemical, biotinylated probe, 635/667 nm fluorescence (AID 1099); conditions: higher = more signal;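 note: score merges 667nm spot fluorescence with signal to noise across triplicate slides; reference of the scale not given here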
Field format: numeric only.

INPUT: // fetch composite z-score given entry CC(C)NC(=O)[C@@]1(Cc2ccccc2I)c2ccccc2C(=O)N(Cc2ccccc2)[C@H]1c1ccc(CO)cc1
OUTPUT: 0.461

INPUT: Give composite z-score for C=CCC(OC(C)=O)[C@@H]1[C@@H](N(Cc2ccc(-c3cccc(C(F)(F)F)c3)o2)C(=O)c2ccc(C)cc2)c2cc(OCCCO)ccc2N1C(=O)c1ccc(-c2ccccc2)cc1 (some centres not stated)
OUTPUT: -0.0544

INPUT: For C=C[C@H](COC(C)=O)N(Cc1ccc(OC(C)=O)c(OC)c1)S(=O)(=O)c1ccc(Br)cc1 , write its composite z-score.
OUTPUT: 0.64

INPUT: Using known records, supply composite z-score for [N-]=[N+]=NCc1ccccc1C[C@]1(C(=O)NCCN2CCOCC2)N=C(c2ccc(OCCCO)cc2)O[C@H]1c1ccccc1N=[N+]=[N-]
OUTPUT: 0.838

INPUT: Tell me composite z-score reported for CC(C)CNC(=O)[C@@H]1c2ccccc2C(=O)N(Cc2cc(C(F)(F)F)cc(C(F)(F)F)c2)[C@H]1c1ccc(CO)cc1
OUTPUT: 0.416

New cases:
INPUT: Return the recorded composite z-score value; entry: C#CCN(C(/C=C/c1ccccc1)CO)C(C(=O)O)c1ccccc1 (configuration not stated)
OUTPUT: -0.285

INPUT: Indicate its recorded composite z-score; the compound in question is CC(C)C[C@@H]1NC(=O)[C@@H]2C[C@H](C(=O)NCCCCCC[N+](C)(C)C)[C@H](c3ccc(O)cc3)N2C1=O
OUTPUT: 0.026
